Biological target: T1, human VPAC2 receptor (human, UniProt P41587 24-438)
T1 sequence (looked up): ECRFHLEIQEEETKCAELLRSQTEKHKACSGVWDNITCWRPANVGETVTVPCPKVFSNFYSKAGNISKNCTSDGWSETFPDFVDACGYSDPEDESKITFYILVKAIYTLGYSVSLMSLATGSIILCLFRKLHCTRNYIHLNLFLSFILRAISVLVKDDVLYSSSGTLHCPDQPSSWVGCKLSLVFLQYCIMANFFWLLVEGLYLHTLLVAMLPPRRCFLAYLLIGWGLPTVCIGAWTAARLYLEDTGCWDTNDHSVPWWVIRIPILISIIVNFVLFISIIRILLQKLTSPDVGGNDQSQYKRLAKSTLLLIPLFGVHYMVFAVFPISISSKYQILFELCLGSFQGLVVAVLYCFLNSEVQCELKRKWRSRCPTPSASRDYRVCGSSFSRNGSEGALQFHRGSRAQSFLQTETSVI
Assay: cell-based or functional assay
Where no end group is shown, it is not given here. [ ]: non-standard residue; d: D form. The star is where a group is joined. Hexanoyl = CCCCCC(=O)*; Aib = CC(C)(N)C(=O)O
# if measured EC50 cAMP, Alpha Screen < 0.2 nM: 1.0  # else: 0.0

Past entries and their recorded results:
BINDER	CLASS_ASSIGNMENT
Hexanoyl-HSDAVFTDNYTRLR[Aib]QVAA[Aib]KYLQSIK[Aib]KGGPSSGAPPPS (ends and bridges not checked) [P349]	1.0
Hexanoyl-HSDAVFTDNYTRLRLQVAAKKYLQSIKNKRYGGPSSGAPPPS [P179]	0.0
Hexanoyl-HSDAVFTDNYTRL[Aib]KQVAAK[Aib]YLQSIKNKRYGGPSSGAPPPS (ends and bridges not checked) [P244]	0.0

Asked: Would you kindly verify if EC50 cAMP, Alpha Screen of Hexanoyl-HSDAVFTDNYTRLRKQVAAKKYLQSYKNKRYGGPSSGAPPPS [P111] is strictly less than 0.2 nM?
Given back: 0.0

Asked: In plain terms, does Hexanoyl-HSDAVFTDNYTRLRKQVAAVKYLQSIKNKRYGGPSSGAPPPS [P146] come in under 0.2 nM for EC50 cAMP, Alpha Screen?
Given back: 1.0
